Where do these numbers come from? They come from paper PMC11060673.

- test-system: His-LHP1 (recombinant Prunus mume Like Heterochromatin Protein 1) (Prunus mume (Japanese apricot))
- assay-details: SPR; BIAcore X-100; PmLHP1 immobilized on a CM5 sensor chip by amine coupling; target protein diluted in a gradient; steady-state affinity model
measured-parameter: Kd (µM)
Write the answer as a number in µM, unit excluded.

Q: Input Gst-AGL24 (recombinant Prunus mume AGAMOUS-like 24) (natural protein) , output reported Kd.
A: 20.6
